- target_system: EPHB1 (UniProt P54762)
- Sequence (P54762 whole entry, looked up): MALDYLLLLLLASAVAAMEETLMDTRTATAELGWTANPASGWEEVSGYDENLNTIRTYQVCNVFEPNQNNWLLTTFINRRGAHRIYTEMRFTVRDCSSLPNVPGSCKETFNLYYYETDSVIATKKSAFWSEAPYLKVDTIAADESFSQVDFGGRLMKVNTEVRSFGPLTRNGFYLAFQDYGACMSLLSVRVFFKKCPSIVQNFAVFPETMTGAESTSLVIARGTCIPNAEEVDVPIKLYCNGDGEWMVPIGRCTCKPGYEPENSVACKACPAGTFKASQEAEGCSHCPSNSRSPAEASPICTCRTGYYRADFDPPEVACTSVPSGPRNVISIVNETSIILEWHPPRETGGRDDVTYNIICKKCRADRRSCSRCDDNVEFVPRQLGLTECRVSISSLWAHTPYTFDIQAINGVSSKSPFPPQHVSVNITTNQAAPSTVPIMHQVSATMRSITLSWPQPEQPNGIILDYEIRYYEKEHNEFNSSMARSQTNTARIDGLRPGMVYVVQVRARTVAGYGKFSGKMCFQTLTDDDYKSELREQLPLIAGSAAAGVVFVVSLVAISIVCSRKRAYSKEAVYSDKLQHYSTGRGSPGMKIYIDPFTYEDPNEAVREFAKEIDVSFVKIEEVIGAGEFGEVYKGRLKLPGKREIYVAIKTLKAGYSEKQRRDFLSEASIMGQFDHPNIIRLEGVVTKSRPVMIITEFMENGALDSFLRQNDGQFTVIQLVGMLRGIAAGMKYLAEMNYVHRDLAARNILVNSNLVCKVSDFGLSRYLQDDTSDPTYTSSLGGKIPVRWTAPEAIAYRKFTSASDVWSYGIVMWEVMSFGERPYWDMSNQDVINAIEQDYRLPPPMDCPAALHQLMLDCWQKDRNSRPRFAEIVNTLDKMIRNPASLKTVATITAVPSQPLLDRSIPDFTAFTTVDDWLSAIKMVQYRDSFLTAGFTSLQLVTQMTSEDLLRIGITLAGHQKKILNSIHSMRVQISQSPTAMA
- protocol: phosphorylation enrichment, bacterial display (enrichment ratio); higher = better substrate or ligand; peptides without Tyr show the background;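 further: 11-residue human phosphosite peptides and single-mutation variants displayed on the E. coli surface, counted by deep sequencing, each peptide's frequency after selection divided by its frequency in the unselected input library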;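 further: frequency after pTyr selection over input frequency; kinase dosed for 20-30% of maximal phosphorylation in three min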
Classes based on phosphorylation enrichment: low = under 0.6, intermediate = from 0.6 up to 0.8, high = 0.8 and over

Q: Hello team, could you let me know which band the following sequence falls into: LVRAFYCERRR [CARD11_Y970]
Result: intermediate

Q: What do we get for IYKAAYFGVYD [SLC25A4_Y191_R188K] ?
Result: high

Q: Another sequence to check: ALMGPYHGQVL [HADHA_Y343_L342P]
Result: low

Q: Further, for VLALWYFFLTN [ZDHHC23_Y127_H132N_YF] ?
Result: intermediate

Q: And what about the sequence VSTAVYKRFPS [BEST1_Y148] ?
Result: low

Q: Then EFEGLYQEGGG [TMEM159_Y159] ?
Result: low

Q: Same for FTRNYYVWAVL [CYBA_Y88_R90W]
Result: high

Q: Another sequence to check: IDDNQYAYLKA [HNF4A_Y286_E285Q]
Result: low

Q: Try this sequence too: MSRLKYPVSQQ [BTK_Y375_I370M]
Result: low

Q: Same for CTTIHQNFMCN [TP53_Y234_Y234Q_YF]
Result: low

Sourced from the supplement of paper PMC10065799
